For each of the compounds below, state its IC50.
Target: RORγ (Mus musculus)
Construct: mRORγ (Pro-261-end); expressed in transfected cells
Sequence (P51450 261-516 limits assumed): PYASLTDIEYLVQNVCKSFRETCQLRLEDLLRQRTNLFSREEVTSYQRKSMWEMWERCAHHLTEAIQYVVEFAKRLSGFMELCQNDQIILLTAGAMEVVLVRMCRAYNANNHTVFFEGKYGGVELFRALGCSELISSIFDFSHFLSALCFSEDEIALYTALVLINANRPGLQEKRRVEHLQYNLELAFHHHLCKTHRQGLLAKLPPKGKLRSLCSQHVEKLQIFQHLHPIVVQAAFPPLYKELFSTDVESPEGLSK
Assay: Gal4-RORγ-LBD UAS-luciferase reporter assay in TRex-CHO-K1 cells (doxycycline-stimulated)
Format: cell-based
Conditions: IC50 (μM) (N=4) RORγ, individual controls of library 1295, second confirmatory dose response, Figure 2
Your reply should be a number followed by the unit it is expressed in.

// recorded IC50 for `O=C(Cc1ccccc1)NC1=NC[C@H](Cc2ccccc2)N1CCC1CCCCC1` : 17.2 µM

// recorded IC50 for O=C(CC1CC2CCC1C2)NC1=NC[C@H](Cc2ccccc2)N1CCc1ccccc1 (stereo partly drawn) : 5.8 µM

// recorded IC50 for `O=C(CC1CCCCC1)NC1=NC[C@H](Cc2ccccc2)N1CCc1ccccc1` : 8.4 µM
